This collection of values is drawn from paper PMC3347997.

Biological target: H-NS;Tn5 transposase (Escherichia coli;Tn5) (UniProt P0ACF8+Q46731)
Sequence (P0ACF8 whole entry, chain 1 of 2): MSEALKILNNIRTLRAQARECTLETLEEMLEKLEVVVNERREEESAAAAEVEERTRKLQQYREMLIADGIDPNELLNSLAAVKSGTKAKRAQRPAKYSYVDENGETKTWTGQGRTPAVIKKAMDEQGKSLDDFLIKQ
Sequence (Q46731 whole entry, chain 2 of 2): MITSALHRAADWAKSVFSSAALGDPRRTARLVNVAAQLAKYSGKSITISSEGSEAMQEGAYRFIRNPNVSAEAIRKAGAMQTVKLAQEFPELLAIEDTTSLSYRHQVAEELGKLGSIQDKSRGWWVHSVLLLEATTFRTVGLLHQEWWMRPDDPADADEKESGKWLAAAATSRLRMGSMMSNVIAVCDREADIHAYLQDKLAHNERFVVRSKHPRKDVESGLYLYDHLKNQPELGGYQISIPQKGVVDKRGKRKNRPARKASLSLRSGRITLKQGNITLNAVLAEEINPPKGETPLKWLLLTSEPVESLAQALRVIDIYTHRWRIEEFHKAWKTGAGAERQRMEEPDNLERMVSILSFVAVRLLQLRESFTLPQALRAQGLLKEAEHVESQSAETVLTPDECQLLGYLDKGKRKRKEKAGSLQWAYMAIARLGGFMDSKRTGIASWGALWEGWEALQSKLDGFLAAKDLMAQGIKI
Test: EMSA
Conditions: 2 nM 32P-DNA, 200 nM transposase (400 nM for ME 8/9), H-NS normally 23-849 nM added simultaneously, no divalent metal, 30 min 37 C, 5% native PAGE; buffer …
readout_name: Kd (nM)
State the answer as a number, implicitly in nM.

seq	measurement_target	readout_name	assay_result
CCCTGCAGGTCGACTGTCTCTTATACACATCTTGAGTGAGTGAGCATGCA / ACATGCATGCTCACTCACTCAAGATGTGTATAAGAGACAGTCGACCTGCAGGG [WT ME 53-bp transposon end]	H-NS;Tn5 transposase (Escherichia coli;Tn5) (UniProt P0ACF8+Q46731)	Kd	51

Read the next record carefully.
[in] Provide measured Kd value, entry: CCCTGCAGGTCGACTGACTCTTATACACAAGTTGAGTGAGTGAGCATGCA / ACATGCATGCTCACTCACTCAACTTGTGTATAAGAGTCAGTCGACCTGCAGGG [OE 53-bp transposon end]
[out] 232
